# system-tested: T1, mouse serum albumin (MSA), full length (mouse, UniProt P07724 25-608)
# T1 construct: mature; Immobilized on CM5 chip (SPR) or coated on plates (ELISA); also called mouse albumin; murine serum albumin
# assay-text: SPR kinetics, immobilized albumin, 1:1 fit, 37 C
Reported pKd values for the following binders.
Just the number, please; pKd means minus log10 of the concentration in mol/L.

Some binders with known pKd results, for comparison:
ADX_7016_G01 (Y44S) (designed binder, Full His6-tagged entry; also called 6727_G02) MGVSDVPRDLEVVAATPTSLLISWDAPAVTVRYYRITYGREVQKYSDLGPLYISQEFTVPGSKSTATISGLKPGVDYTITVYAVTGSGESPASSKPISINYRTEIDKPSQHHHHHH = 7.57
ADX_7016_A01 (parent PKE2 Adnectin) (designed binder, N-terminal Met may be cleaved; also called 2629_E06; ADX_2629_E06) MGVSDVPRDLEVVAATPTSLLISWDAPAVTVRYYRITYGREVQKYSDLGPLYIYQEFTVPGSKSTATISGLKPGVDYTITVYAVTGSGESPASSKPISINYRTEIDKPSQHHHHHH = 8.55

Turning to the following binder.
Exercise: Consider the binder ADX_7016_C03 (Y44Q) (designed binder, Full His6-tagged entry; also called 6727_B03) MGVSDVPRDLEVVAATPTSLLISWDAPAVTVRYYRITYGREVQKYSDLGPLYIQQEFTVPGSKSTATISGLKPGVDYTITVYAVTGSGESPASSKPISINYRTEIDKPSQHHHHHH and give its measured pKd.
Key: 6.58
